studyTarget: Ataxin-2 (Homo sapiens)
protocolDetails: qHTS for Inhibitors of ATXN expression.
Format: functional
The whole screen tested about 400,000 compounds, of which about 2,100 (0.53%) were called active. Roughly 14% stayed inconclusive and do not appear here. How the calls were made is not given here. Shown is part of a subset that was picked to be rich in actives.
Possible outcomes: Y (active), N (inactive)

[
  {
    "compound": "c1cncc(-c2nc(N3CCOCC3)c3c4c(sc3n2)CCC4)c1",
    "studyTarget": "Ataxin-2 (Homo sapiens)",
    "cat": "N"
  },
  {
    "compound": "FC(F)(F)c1cc(CO[C@@H]2CCCN[C@@H]2c2ccccc2)cc(C(F)(F)F)c1",
    "studyTarget": "Ataxin-2 (Homo sapiens)",
    "cat": "Y"
  },
  {
    "compound": "O=C(NC1CCN(Cc2ccccc2)CC1)c1ccccc1Cl",
    "studyTarget": "Ataxin-2 (Homo sapiens)",
    "cat": "N"
  },
  {
    "compound": "COc1cc(/C=C2/SC(=S)N(c3c(C)n(C)n(-c4ccccc4)c3=O)C2=O)ccc1O",
    "studyTarget": "Ataxin-2 (Homo sapiens)",
    "cat": "Y"
  },
  {
    "compound": "Cc1cc(-c2nnc3n2N=C(c2ccccc2)CS3)[nH]n1",
    "studyTarget": "Ataxin-2 (Homo sapiens)",
    "cat": "N"
  },
  {
    "compound": "CN(/N=C/c1cc(Br)cc(Br)c1O)c1cccc(C(F)(F)F)n1",
    "studyTarget": "Ataxin-2 (Homo sapiens)",
    "cat": "N"
  },
  {
    "compound": "C=Cc1ccc(Cn2c(C(=O)O)c(CNCc3cccs3)c3ccc(C)cc32)cc1",
    "studyTarget": "Ataxin-2 (Homo sapiens)",
    "cat": "Y"
  },
  {
    "compound": "C=CCNC(=O)C1CC(=O)N(c2ccc(OCC(=O)N3CCCC3)cc2)C1 (stereo not given)",
    "studyTarget": "Ataxin-2 (Homo sapiens)",
    "cat": "N"
  },
  {
    "compound": "COc1ccc(/C=C2\\SC(=S)N(CCCC(=O)Nc3cc(C)on3)C2=O)cc1OC",
    "studyTarget": "Ataxin-2 (Homo sapiens)",
    "cat": "N"
  },
  {
    "compound": "COc1ccc(OC(C)C(=O)Nc2ccc(F)cc2F)cc1 (stereo not given)",
    "studyTarget": "Ataxin-2 (Homo sapiens)",
    "cat": "N"
  }
]

----------
studyTarget: Ataxin-2 (Homo sapiens)
protocolDetails: qHTS for Inhibitors of ATXN expression.
Assay type: functional
Hit rate of the full screen: of about 400,000 compounds, about 2,100 (0.53%) were called active. Inconclusive results (about 14%) are left out. No rule for the calls is given here. The sample as a whole holds a higher share of actives than the screen did.
Possible outcomes: y = active, n = inactive

[
  {
    "molecule": "Cc1cccc2c3c([nH]c12)C(=O)CC(C)(C)S3",
    "cat": "n"
  },
  {
    "molecule": "CC(=O)Nc1nc2n(n1)C(c1ccc(F)cc1)C=C(c1ccc(Cl)cc1)N2 (stereo not drawn)",
    "cat": "n"
  },
  {
    "molecule": "COc1ccc(/C=c2\\s/c(=C/C(=O)c3ccc(C)cc3)[nH]c2=O)cc1OC",
    "cat": "n"
  },
  {
    "molecule": "O=C(CN(Cc1ccc(F)cc1)C(=O)CCC(=O)Nc1nccs1)NCc1ccccc1",
    "cat": "n"
  },
  {
    "molecule": "Oc1nc(/C=C/c2cccc3ccccc23)nc2ccccc12",
    "cat": "n"
  },
  {
    "molecule": "Cc1ccc(NC(=O)COC(=O)c2c[nH]c3ccccc23)cc1C",
    "cat": "n"
  },
  {
    "molecule": "COC(=O)Cn1c2ccccc2c2nc3ccccc3nc21",
    "cat": "n"
  },
  {
    "molecule": "CCN(CCNC(=O)C1CCC(=O)N1Cc1ccc(C)cc1)c1ccccc1 (stereo not drawn)",
    "cat": "n"
  },
  {
    "molecule": "Cc1cn(-c2cc(C(=O)Nc3ccc(C)c(NC(=O)C(=O)c4c[nH]c5ccccc45)c3)cc(C(F)(F)F)c2)cn1",
    "cat": "y"
  },
  {
    "molecule": "CC1CC(NC(=O)c2cc3c(=O)n4ccccc4nc3n2C)CC(C)(C)C1 (stereo not drawn)",
    "cat": "n"
  },
  {
    "molecule": "CCN1CCN(Cc2c(O)ccc3cc(-c4ccc(OC)cc4)c(=O)oc23)CC1",
    "cat": "n"
  },
  {
    "molecule": "CC(Sc1nc2ccccc2s1)C(=O)N(C)Cc1ccccc1 (stereo not drawn)",
    "cat": "n"
  },
  {
    "molecule": "COc1ccc(CNC[C@@H](CCCCN(C)Cc2ccc(OC)cc2)N2C[C@H](c3ccccc3)N(CCc3ccc(Cl)c(Cl)c3)C(=O)C2=O)cc1",
    "cat": "y"
  },
  {
    "molecule": "Cc1cccc2c3nc4ccccc4nc3n(C)c12",
    "cat": "n"
  },
  {
    "molecule": "Nc1nc2ccccc2cc1S(=O)(=O)c1ccccc1",
    "cat": "n"
  },
  {
    "molecule": "Cc1ccc2[nH]c(CSc3nc(C)cc(C)c3C#N)nc2c1",
    "cat": "n"
  },
  {
    "molecule": "COc1ccc(C(=O)Nc2nc3n(n2)C(c2ccccc2)C=C(c2ccccc2)N3)cc1 (stereo not drawn)",
    "cat": "n"
  },
  {
    "molecule": "Oc1nc2ccccc2nc1-c1c[nH]c2ccccc12",
    "cat": "n"
  }
]

----------
studyTarget: Ataxin-2 (Homo sapiens) (UniProt Q99700)
Sequence (Q99700 whole entry): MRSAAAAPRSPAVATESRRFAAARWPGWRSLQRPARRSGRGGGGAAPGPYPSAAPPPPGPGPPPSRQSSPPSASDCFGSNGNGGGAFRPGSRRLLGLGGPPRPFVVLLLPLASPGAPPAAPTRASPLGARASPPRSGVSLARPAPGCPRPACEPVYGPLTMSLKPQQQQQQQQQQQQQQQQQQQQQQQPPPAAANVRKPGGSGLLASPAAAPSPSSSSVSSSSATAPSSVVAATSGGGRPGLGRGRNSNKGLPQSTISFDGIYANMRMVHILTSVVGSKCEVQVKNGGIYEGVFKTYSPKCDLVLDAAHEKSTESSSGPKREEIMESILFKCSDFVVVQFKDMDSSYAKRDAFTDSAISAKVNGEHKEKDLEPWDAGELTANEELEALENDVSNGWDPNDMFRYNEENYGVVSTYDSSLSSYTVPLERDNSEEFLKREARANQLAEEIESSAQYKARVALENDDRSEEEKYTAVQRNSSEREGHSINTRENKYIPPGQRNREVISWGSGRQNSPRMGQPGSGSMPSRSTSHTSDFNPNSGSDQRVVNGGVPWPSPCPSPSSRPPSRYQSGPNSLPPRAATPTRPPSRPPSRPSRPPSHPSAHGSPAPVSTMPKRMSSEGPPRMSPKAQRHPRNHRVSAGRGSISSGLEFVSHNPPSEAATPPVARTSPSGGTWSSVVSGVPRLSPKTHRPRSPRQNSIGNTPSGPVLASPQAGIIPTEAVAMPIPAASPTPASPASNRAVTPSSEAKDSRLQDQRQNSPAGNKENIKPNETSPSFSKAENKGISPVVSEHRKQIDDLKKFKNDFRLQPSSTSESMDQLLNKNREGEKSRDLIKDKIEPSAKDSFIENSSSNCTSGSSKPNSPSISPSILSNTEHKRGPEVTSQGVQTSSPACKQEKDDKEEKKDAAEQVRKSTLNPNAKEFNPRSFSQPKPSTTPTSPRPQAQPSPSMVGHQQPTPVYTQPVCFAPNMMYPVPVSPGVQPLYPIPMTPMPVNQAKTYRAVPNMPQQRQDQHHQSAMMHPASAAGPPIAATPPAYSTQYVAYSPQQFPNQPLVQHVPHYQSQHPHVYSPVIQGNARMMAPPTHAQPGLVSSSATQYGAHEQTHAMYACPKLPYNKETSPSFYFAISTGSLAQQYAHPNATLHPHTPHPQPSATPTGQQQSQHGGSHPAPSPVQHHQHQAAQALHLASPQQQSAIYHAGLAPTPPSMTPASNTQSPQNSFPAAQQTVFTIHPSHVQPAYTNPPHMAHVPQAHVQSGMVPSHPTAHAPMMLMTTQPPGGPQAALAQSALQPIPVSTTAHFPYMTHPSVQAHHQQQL
protocolDetails: qHTS for Inhibitors of ATXN expression.
Format: functional
Out of some 400,000 compounds screened, about 2,100 (0.53%) were called active. Roughly 14% stayed inconclusive and do not appear here. No rule for the calls is given here. What follows is part of a selection rich in actives, with near analogues and random picks from the rest.
Labels: YES = active, NO = inactive

[
  {
    "molecule": "Cc1cccn2c(=O)c3cc(C(=O)NC4CCCC4)c(=N)n(CC4CCCO4)c3nc12 (centres undefined)",
    "cat": "NO"
  },
  {
    "molecule": "Cc1ccc(CC2(C)C(=O)Nc3ccc(OC(F)(F)F)cc32)cc1 (centres undefined)",
    "cat": "YES"
  },
  {
    "molecule": "CCCCCC(=O)NC(=S)Nc1ccc(Cl)cn1",
    "cat": "NO"
  },
  {
    "molecule": "NC(=O)NN=C1CCN2CCCc3cccc1c32",
    "cat": "NO"
  },
  {
    "molecule": "N#Cc1c(-c2cccc(Br)c2)cc(-c2ccco2)nc1O",
    "cat": "NO"
  },
  {
    "molecule": "CCOC(=O)Cc1csc(NC(=O)COc2ccc3c(C)cc(=O)oc3c2)n1",
    "cat": "NO"
  },
  {
    "molecule": "CCn1c(C(C)NC(C)=O)nc2ccccc21 (centres undefined)",
    "cat": "NO"
  },
  {
    "molecule": "S=C(Nc1ccccc1)Nc1ccc2c[nH]nc2c1",
    "cat": "NO"
  },
  {
    "molecule": "C[C@@H](C[C@@H](O)[C@H](O)C(C)(C)O)[C@@H]1CC[C@]2(C)C3=CC[C@H]4C(C)(C)C(=O)CC[C@]4(C)[C@H]3CC[C@@]12C",
    "cat": "YES"
  },
  {
    "molecule": "CCn1cnc2c1c(=O)n(CC(=O)NN)c(=O)n2Cc1ccccc1",
    "cat": "NO"
  },
  {
    "molecule": "CCn1c2ccccc2nc2cc3c(cc21)c(Cl)c(=O)c1ccccc13",
    "cat": "YES"
  },
  {
    "molecule": "CC(=O)c1c(C)[nH]c(C(=O)COC(=O)COc2ccccc2F)c1C",
    "cat": "NO"
  },
  {
    "molecule": "COc1cc(/C=C(\\C#N)c2nc3ccccc3[nH]2)cc(Br)c1OCc1ccccc1",
    "cat": "NO"
  },
  {
    "molecule": "CCOC(=O)Cc1csc(NC(=O)CN2CCN(c3ccccc3)CC2)n1",
    "cat": "NO"
  },
  {
    "molecule": "NC(=O)c1nsc(C(=O)N(c2cccc(O)c2)C(C(=O)NC2CCCC2)c2ccc(Cl)cc2)c1N (centres undefined)",
    "cat": "NO"
  },
  {
    "molecule": "CCOc1cc(/C=N/NC(=O)C(C)Sc2ccccc2)ccc1O (centres undefined)",
    "cat": "NO"
  },
  {
    "molecule": "O=C(NN/C=C1\\C(=O)N(c2ccc(Cl)cn2)C(=O)c2ccccc21)c1ccncc1",
    "cat": "NO"
  },
  {
    "molecule": "CC(=O)Nc1ccc(S(=O)(=O)[N-]c2nc3ccccc3nc2-[n+]2ccc(NC(=O)c3ccccc3)cc2)cc1",
    "cat": "NO"
  },
  {
    "molecule": "OCCN(CCO)c1ccc(C(c2ccccc2Cl)c2ccc(N(CCO)CCO)cc2Cl)c(Cl)c1",
    "cat": "YES"
  },
  {
    "molecule": "Cc1ccc(CCC(=O)Nc2ccccc2C(=O)O)o1",
    "cat": "NO"
  },
  {
    "molecule": "CCc1ccc(S(=O)(=O)ON2C(=O)c3ccccc3C2=O)cc1",
    "cat": "YES"
  },
  {
    "molecule": "O=C(Nc1cc[n+](-c2nc3ccccc3nc2[N-]S(=O)(=O)c2ccc(Cl)cc2)cc1)c1cccs1",
    "cat": "NO"
  },
  {
    "molecule": "C/C(=N\\NC(=O)C1=NNC(=O)C1C)c1cccs1 (centres undefined)",
    "cat": "NO"
  },
  {
    "molecule": "CN(C)CCCN1c2ccc3ccccc3c2Sc2cccc(Cl)c21",
    "cat": "YES"
  }
]
